Source of measurements: ChEMBL document CHEMBL4342430

Molecular target: G-protein coupled receptor 84 (Homo sapiens, UniProt Q9NQS5)
Sequence (Q9NQS5 whole entry): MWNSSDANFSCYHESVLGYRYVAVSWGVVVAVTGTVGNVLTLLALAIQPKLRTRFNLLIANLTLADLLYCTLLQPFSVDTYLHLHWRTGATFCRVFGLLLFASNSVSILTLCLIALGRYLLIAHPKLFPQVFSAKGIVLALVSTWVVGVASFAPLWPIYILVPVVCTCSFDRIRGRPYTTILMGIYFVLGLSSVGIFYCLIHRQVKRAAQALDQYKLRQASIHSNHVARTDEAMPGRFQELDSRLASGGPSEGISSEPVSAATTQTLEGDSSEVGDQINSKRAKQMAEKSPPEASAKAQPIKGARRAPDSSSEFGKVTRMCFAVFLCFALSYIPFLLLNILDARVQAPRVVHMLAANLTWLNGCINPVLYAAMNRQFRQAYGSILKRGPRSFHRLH
Assay: Positive allosteric modulation of recombinant human GPR84 expressed in CHO cell membranes co-expressing beta-arrestin2 assessed as increase in [3H]PSB-1584 binding measured after 6 hrs by scintillation counting method relative to control
endpoint: %max

Field: example entries. Status: answers known.
molecule-smiles: Fc1ccc2[nH]cc(Cc3c[nH]c4ccc(F)cc34)c2c1
%max: 125%
//
molecule-smiles: Fc1ccc2[nH]cc(Cc3c[nH]c4ccc(F)c(F)c34)c2c1F
%max: 67%
//
molecule-smiles: c1ccc2c(Cc3c[nH]c4ccccc34)c[nH]c2c1
%max: < 100%

Data request, read-out %max, for Fc1ccc2c(Cc3c[nH]c4cc(F)ccc34)c[nH]c2c1 57%

Data request, read-out %max, for Fc1cc2[nH]cc(Cc3c[nH]c4cc(F)c(F)cc34)c2cc1F 55%

Data request, read-out %max, for Fc1cccc2c(Cc3c[nH]c4c(F)cccc34)c[nH]c12 153%

----------
# pEC50 per entry
Molecular target: G-protein coupled receptor 84 (Homo sapiens)
Experiment: Positive allosteric modulation of recombinant human GPR84 expressed in CHO cell membranes co-expressing beta-arrestin2 assessed as increase in [3H]PSB-1584 binding measured after 6 hrs by scintillation counting method
By convention, pEC50 is the negative base-10 log of a molar concentration.

molecule-smiles: COc1ccc2[nH]cc(Cc3c[nH]c4ccc(OC)cc34)c2c1
pEC50: 6.99

API: value(readout=pEC50, system=G-protein coupled receptor 84 (Homo sapiens)) for record COc1ccc2[nH]cc(Cc3c[nH]c4ccccc34)c2c1 6.31

API: value(readout=pEC50, system=G-protein coupled receptor 84 (Homo sapiens)) for record Fc1cc2[nH]cc(Cc3c[nH]c4cc(F)c(F)cc34)c2cc1F 7.28

API: value(readout=pEC50, system=G-protein coupled receptor 84 (Homo sapiens)) for record Clc1ccc2[nH]cc(Cc3c[nH]c4ccc(Cl)cc34)c2c1 6.60

API: value(readout=pEC50, system=G-protein coupled receptor 84 (Homo sapiens)) for record Fc1cccc2c(Cc3c[nH]c4c(F)cccc34)c[nH]c12 7.21

API: value(readout=pEC50, system=G-protein coupled receptor 84 (Homo sapiens)) for record O=C(c1c[nH]c2ccccc12)c1c[nH]c2ccccc12 5.71

----------
# inhibition per entry
Molecular target: G-protein coupled receptor 84 (Homo sapiens, UniProt Q9NQS5)
Test: Displacement of [3H]PSB-1584 from recombinant human GPR84 expressed in CHO cell membranes co-expressing beta-arrestin2 at 100 uM measured after 6 hrs by scintillation counting method relative to control
Numeric only. Scale: %

compound: CCCCOC(=O)c1cc(O)nc(O)n1
quantity-unit: %
inhibition: -3

compound: CCCCCCSc1nc(O)cc(C(=O)OC)n1
quantity-unit: %
inhibition: 9

compound: CCCCCCSc1nc(O)cc(CCC)n1
quantity-unit: %
inhibition: 51

API: value(readout=inhibition, system=G-protein coupled receptor 84 (Homo sapiens, UniProt Q9NQS5)) for record CCCCCCCCCNC(=O)c1cc(=O)[nH]c(=O)[nH]1 26

API: value(readout=inhibition, system=G-protein coupled receptor 84 (Homo sapiens, UniProt Q9NQS5)) for record CCCCCCCCNC(=O)c1cc(=O)[nH]c(=O)[nH]1 12

API: value(readout=inhibition, system=G-protein coupled receptor 84 (Homo sapiens, UniProt Q9NQS5)) for record O=C(O)CCCCCCCCCCCO 5

API: value(readout=inhibition, system=G-protein coupled receptor 84 (Homo sapiens, UniProt Q9NQS5)) for record CCCCCCC(O)C(=O)O (racemic) 50

----------
Molecular target: UniProt:Q9NQS5
Experiment: Agonist activity at recombinant human GPR84 expressed in CHO cell membranes co-expressing beta-arrestin2 assessed as inhibition of forskolin-stimulated [3H]cAMP accumulation preincubated for 5 mins followed by forskolin stimulation and measured after 15 mins by radioactive assay
Assay type: functional, cell-based
endpoint: EC50

Field: example entries. Status: answers known.
compound: O=C(O)CCCCCCCCCCCO
endpoint: EC50
result: > 100 µM
//
compound: CCCCCCCC(=O)O
endpoint: EC50
result: > 100 µM

Next:
Data request, read-out EC50, for CCCCCCC(O)C(=O)O (racemic) > 100 µM

----------
Biological target: G-protein coupled receptor 84 (Homo sapiens)
Test: Displacement of [3H]PSB-1584 from recombinant human GPR84 expressed in CHO cell membranes co-expressing beta-arrestin2 measured after 6 hrs by scintillation counting method
# pKi per entry
By convention, pKi is the negative base-10 log of a molar concentration.

molecule: Cc1ccc(CCSc2nc(O)cc(=O)[nH]2)cc1
result-number: 8.48

molecule: CCCCCCCCCCC[C@@H](O)CC(=O)O
result-number: 6.33

molecule: CCCCCCCCCCCCC(=O)O [TRIDECANOATE]
result-number: 5.71

Data request, read-out pKi, for CCCCCCCC(O)CC(=O)O (racemic) 5.48

----------
Molecular target: G-protein coupled receptor 84 (Homo sapiens, UniProt Q9NQS5)
Assay: Positive allosteric modulation of recombinant human GPR84 expressed in CHO cell membranes co-expressing beta-arrestin2 assessed as increase in [3H]PSB-1584 binding measured after 6 hrs by scintillation counting method relative to control
# %max per entry
Numeric only. Scale: %

Field: example entries. Status: answers known.
molecule-smiles: COc1ccc2[nH]cc(Cc3c[nH]c4ccccc34)c2c1
assayed-target: G-protein coupled receptor 84 (Homo sapiens, UniProt Q9NQS5)
quantity-unit: %
result-number: 53
//
molecule-smiles: Fc1ccc2[nH]cc(Cc3c[nH]c4ccccc34)c2c1
assayed-target: G-protein coupled receptor 84 (Homo sapiens, UniProt Q9NQS5)
quantity-unit: %
result-number: 55
//
molecule-smiles: Fc1cc(F)c2[nH]cc(Cc3c[nH]c4c(F)cc(F)cc34)c2c1
assayed-target: G-protein coupled receptor 84 (Homo sapiens, UniProt Q9NQS5)
quantity-unit: %
result-number: 87
//
molecule-smiles: Fc1cccc2[nH]cc(Cc3c[nH]c4cccc(F)c34)c12
assayed-target: G-protein coupled receptor 84 (Homo sapiens, UniProt Q9NQS5)
quantity-unit: %
result-number: 56

Next:
Data request, read-out %max, for O=C(c1c[nH]c2ccccc12)c1c[nH]c2ccccc12 59

----------
Target: UniProt Q9NQS5
Assay: Displacement of [3H]PSB-1584 from recombinant human GPR84 expressed in CHO cell membranes co-expressing beta-arrestin2 measured after 6 hrs by scintillation counting method
# Ki per entry

molecule: CCCCCCC(O)C(=O)O (racemic)
endpoint: Ki
result: 100000 nM
//
molecule: O=c1cc(N2CCN(c3ccc(Cl)cc3)CC2)[nH]c(=O)[nH]1
endpoint: Ki
result: 44.4 nM
//
molecule: CCCCOC(=O)c1cc(O)nc(O)n1
endpoint: Ki
result: > 10000 nM

API: value(readout=Ki, system=UniProt Q9NQS5) for record O=c1cc(NCCc2ccc(Cl)cc2Cl)[nH]c(=O)[nH]1 2.3 nM

----------
Molecular target: G-protein coupled receptor 84 (Homo sapiens, UniProt Q9NQS5)
Experiment: Agonist activity at recombinant human GPR84 expressed in CHO cell membranes co-expressing beta-arrestin2 assessed as beta-arrestin 2 recruitment measured after 90 mins by beta-galactosidase based PathHunter assay
pEC50: −log10 of the molar value.
endpoint: pEC50

compound: CCCCCCC(O)C(=O)O (racemic)
pEC50: < 4.00

compound: CCCCCCCC(O)CC(=O)O (racemic)
pEC50: 5.39

compound: CCCCCCCC(=O)O
pEC50: < 4.00

Next:
API: value(readout=pEC50, system=G-protein coupled receptor 84 (Homo sapiens, UniProt Q9NQS5)) for record O=C(O)CCCCCCCCCCCO < 4.00

----------
# log10(EC50) per entry
Target: G-protein coupled receptor 84 (Homo sapiens, UniProt Q9NQS5)
Experiment: Positive allosteric modulation of recombinant human GPR84 expressed in CHO cell membranes co-expressing beta-arrestin2 assessed as increase in [3H]PSB-1584 binding measured after 6 hrs by scintillation counting method
The base-10 logarithm of EC50, taken with EC50 in nM, is what appears here.

API: value(readout=log10(EC50), system=G-protein coupled receptor 84 (Homo sapiens, UniProt Q9NQS5)) for record Brc1ccc2[nH]cc(Cc3c[nH]c4ccc(Br)cc34)c2c1 1.77

----------
# pKi per entry
Biological target: G-protein coupled receptor 84 (Homo sapiens)
Assay: Displacement of [3H]PSB-1584 from recombinant human GPR84 expressed in CHO cell membranes co-expressing beta-arrestin2 measured after 6 hrs by scintillation counting method
pKi: −log10 of the molar value.

API: value(readout=pKi, system=G-protein coupled receptor 84 (Homo sapiens)) for record O=C(O)CCCCCCCCCCCO < 5.00

API: value(readout=pKi, system=G-protein coupled receptor 84 (Homo sapiens)) for record CCCCCCSc1nc(O)cc(C(=O)OC)n1 < 5.00

API: value(readout=pKi, system=G-protein coupled receptor 84 (Homo sapiens)) for record CCCCCCCCCNC(=O)c1cc(=O)[nH]c(=O)[nH]1 < 5.00
